system: 5-hydroxytryptamine receptor 6 (Homo sapiens, UniProt P50406)
Sequence (P50406 whole entry): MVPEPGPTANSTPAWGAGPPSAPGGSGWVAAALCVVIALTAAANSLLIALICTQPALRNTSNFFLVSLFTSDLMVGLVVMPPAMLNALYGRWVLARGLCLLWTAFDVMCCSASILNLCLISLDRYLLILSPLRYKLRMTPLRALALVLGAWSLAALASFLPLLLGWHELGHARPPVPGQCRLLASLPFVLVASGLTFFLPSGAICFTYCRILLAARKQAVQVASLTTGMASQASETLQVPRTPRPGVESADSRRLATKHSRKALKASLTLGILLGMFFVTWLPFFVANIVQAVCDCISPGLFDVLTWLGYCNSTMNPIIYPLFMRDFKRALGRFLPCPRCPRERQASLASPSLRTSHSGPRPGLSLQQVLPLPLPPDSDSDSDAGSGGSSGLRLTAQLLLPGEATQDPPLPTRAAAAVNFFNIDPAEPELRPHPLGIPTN
test_method_notes: Binding affinity against human 5-hydroxytryptamine 6 receptor
// classify: if (Ki < 2 nM) Y else N

Worked cases, answers included:
Cc1c(S(=O)(=O)Nc2ccc3nccc(N4CCNCC4)c3c2)sc2c(Cl)cc(Cl)cc12 N
O=S(=O)(Nc1ccc2nccc(N3CCNCC3)c2c1)c1ccc(-c2ccccc2)cc1 Y
CC(C)(C)c1ccc(S(=O)(=O)Nc2ccc3nccc(N4CCNCC4)c3c2)cc1 Y

Please look at the following molecule next.
Query: # strict comparison: is reported Ki < 2 nM? input = "O=S(=O)(Nc1ccc2nccc(N3CCNCC3)c2c1)c1ccc2c(Cl)cccc2c1"
Response: Y

====

Parameter Ki: see the listing below.
system: 5-hydroxytryptamine receptor 2A (Homo sapiens, UniProt P28223)
Sequence (P28223 whole entry): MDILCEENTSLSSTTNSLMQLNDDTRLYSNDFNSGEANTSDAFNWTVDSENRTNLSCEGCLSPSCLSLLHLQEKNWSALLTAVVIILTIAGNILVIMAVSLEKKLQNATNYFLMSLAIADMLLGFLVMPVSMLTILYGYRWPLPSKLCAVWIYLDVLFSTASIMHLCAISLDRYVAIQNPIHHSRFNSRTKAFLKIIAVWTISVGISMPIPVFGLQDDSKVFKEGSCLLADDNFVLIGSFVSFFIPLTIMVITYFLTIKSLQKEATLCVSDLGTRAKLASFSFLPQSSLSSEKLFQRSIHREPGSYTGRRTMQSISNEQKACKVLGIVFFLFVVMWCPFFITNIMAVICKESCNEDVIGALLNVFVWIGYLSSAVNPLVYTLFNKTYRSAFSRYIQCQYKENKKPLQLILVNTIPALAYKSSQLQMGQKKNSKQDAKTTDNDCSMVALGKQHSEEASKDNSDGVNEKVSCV
test_method_notes: Binding affinity to human cloned 5-hydroxytryptamine 2A receptor in HEK 293 cells using [3H]- ketanserin as radioligand

Example entries and their recorded answers appear below.
Cc1cc(N2CCNCC2)c2cc(NS(=O)(=O)c3sc4ccc(Cl)cc4c3C)ccc2n1 > 2000 nM
CC(C)(C)c1ccc(S(=O)(=O)Nc2ccc3nccc(N4CCNCC4)c3c2)cc1 > 3160 nM
Cc1c(S(=O)(=O)Nc2ccc3nccc(N4CCN[C@@H](C)C4)c3c2)sc2ccc(Cl)cc12 > 2510 nM

Next item in the queue.
In plain terms, "Cc1sc2ccc(Cl)cc2c1S(=O)(=O)Nc1ccc2nccc(N3CCNCC3)c2c1" has a documented Ki of > 2000 nM

====

system: D(3) dopamine receptor (Homo sapiens)
Sequence (P35462 whole entry): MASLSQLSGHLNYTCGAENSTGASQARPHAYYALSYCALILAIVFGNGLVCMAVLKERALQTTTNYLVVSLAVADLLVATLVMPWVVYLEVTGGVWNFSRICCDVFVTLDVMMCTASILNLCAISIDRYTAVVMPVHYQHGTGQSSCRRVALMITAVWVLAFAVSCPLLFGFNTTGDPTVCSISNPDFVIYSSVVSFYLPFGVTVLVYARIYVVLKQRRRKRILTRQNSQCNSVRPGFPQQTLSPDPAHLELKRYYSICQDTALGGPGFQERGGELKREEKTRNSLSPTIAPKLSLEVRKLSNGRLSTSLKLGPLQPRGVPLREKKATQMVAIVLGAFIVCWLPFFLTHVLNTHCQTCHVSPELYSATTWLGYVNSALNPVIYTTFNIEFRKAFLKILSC
test_method_notes: Binding affinity to human cloned Dopamine receptor D3 in CHO cells using [125I]- iodosulpride as radioligand
measured_quantity: Ki

Example entries and their recorded answers appear below.
Cc1sc2ccc(Cl)cc2c1S(=O)(=O)Nc1ccc2nccc(N3CCNCC3)c2c1 > 1580 nM
Cc1c(S(=O)(=O)Nc2ccc3nccc(N4CCN[C@@H](C)C4)c3c2)sc2ccc(Cl)cc12 > 2000 nM
Cc1cc(N2CCNCC2)c2cc(NS(=O)(=O)c3sc4ccc(Cl)cc4c3C)ccc2n1 > 1000 nM

Tested on D(3) dopamine receptor (Homo sapiens): "CCc1c(S(=O)(=O)Nc2ccc3nccc(N4CCNCC4)c3c2)sc2ccc(Cl)cc12" . Observed Ki: > 10000 nM

Tested on D(3) dopamine receptor (Homo sapiens): "Cc1c(S(=O)(=O)Nc2ccc3nccc(N4CCN(C)CC4)c3c2)sc2ccc(Cl)cc12" . Observed Ki: > 3980 nM

Tested on D(3) dopamine receptor (Homo sapiens): "O=S(=O)(Nc1ccc2nccc(N3CCNCC3)c2c1)c1ccc2c(Cl)cccc2c1" . Observed Ki: 2510 nM

Tested on D(3) dopamine receptor (Homo sapiens): "Cc1c(S(=O)(=O)Nc2ccc3nccc(N4CCNCC4)c3c2)sc2ccc(Cl)cc12" . Observed Ki: > 1580 nM

Tested on D(3) dopamine receptor (Homo sapiens): "CC(C)(C)c1ccc(S(=O)(=O)Nc2ccc3nccc(N4CCNCC4)c3c2)cc1" . Observed Ki: > 5010 nM

Tested on D(3) dopamine receptor (Homo sapiens): "O=S(=O)(Nc1ccc2nccc(N3CCNCC3)c2c1)c1ccc(-c2ccccc2)cc1" . Observed Ki: > 3160 nM

====

system: UniProt:P14416
Sequence (P14416 whole entry): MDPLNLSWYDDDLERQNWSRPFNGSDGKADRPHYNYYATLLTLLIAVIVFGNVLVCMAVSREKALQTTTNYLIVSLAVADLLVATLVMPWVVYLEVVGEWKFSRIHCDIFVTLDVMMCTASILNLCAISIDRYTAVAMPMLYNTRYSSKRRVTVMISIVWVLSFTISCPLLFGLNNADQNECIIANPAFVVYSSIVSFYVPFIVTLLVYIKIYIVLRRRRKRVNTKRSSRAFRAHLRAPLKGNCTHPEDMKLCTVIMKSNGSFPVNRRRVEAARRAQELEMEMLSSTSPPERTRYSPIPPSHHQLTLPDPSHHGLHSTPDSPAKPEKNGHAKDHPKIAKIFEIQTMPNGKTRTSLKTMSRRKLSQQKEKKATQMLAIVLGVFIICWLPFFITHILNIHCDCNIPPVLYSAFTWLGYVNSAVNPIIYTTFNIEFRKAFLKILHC
test_method_notes: Binding affinity to human cloned Dopamine receptor D2 in CHO cells using [125I]- iodosulpride as radioligand
pKi: −log10 of the molar value.
measured_quantity: pKi

Example entries and their recorded answers appear below.
CC(C)(C)c1ccc(S(=O)(=O)Nc2ccc3nccc(N4CCNCC4)c3c2)cc1 < 5.00
O=S(=O)(Nc1ccc2nccc(N3CCNCC3)c2c1)c1ccc2c(Cl)cccc2c1 < 5.30
O=S(=O)(Nc1ccc2nccc(N3CCNCC3)c2c1)c1ccc(-c2ccccc2)cc1 < 5.30
CCc1c(S(=O)(=O)Nc2ccc3nccc(N4CCNCC4)c3c2)sc2ccc(Cl)cc12 < 6.00
Cc1c(S(=O)(=O)Nc2ccc3nccc(N4CCN(C)CC4)c3c2)sc2ccc(Cl)cc12 < 5.10

In plain terms, "Cc1c(S(=O)(=O)Nc2ccc3nccc(N4CCNCC4)c3c2)sc2ccc(Cl)cc12" has a documented pKi of < 5.00

In plain terms, "Cc1sc2ccc(Cl)cc2c1S(=O)(=O)Nc1ccc2nccc(N3CCNCC3)c2c1" has a documented pKi of < 5.40

In plain terms, "Cc1cc(N2CCNCC2)c2cc(NS(=O)(=O)c3sc4ccc(Cl)cc4c3C)ccc2n1" has a documented pKi of < 5.20

In plain terms, "Cc1c(S(=O)(=O)Nc2ccc3nccc(N4CCN[C@@H](C)C4)c3c2)sc2ccc(Cl)cc12" has a documented pKi of < 5.50
